Test system: MS2 coat protein
method-summary: apparent KD of MS2 coat protein; designed switch direction (-1 OFF switch, 1 ON switch): 1; higher = weaker reporter binding
particulars: input ligand: microRNA oligo, concentration not stated
property: apparent KD of MS2 coat protein
Write your answer as a measured quantity: the number, then the unit.

>  <sequence-text>
GCGAGCGUACUUGCAGACAUGAGGAUCACCCAUGUAACUGGACAGGAUAUGGUACCGUUUCGGUACCAGAAGGGUUUAUAUGUC [JL SSNG3 3.52] (Eterna round: R96, puzzle: Same State NG 3)

>  <tested-target>
MS2 coat protein

>  <apparent KD of MS2 coat protein>
25.7 nM

$$$$

Measured apparent KD of MS2 coat protein of AAGAAACAUGAGGAUCACCCAUGUAAUAAUAUGGGAGGAUAUACAAGGACAAUAGUCAAGGUAGAAGGCCUAAGAA [Mat - Same State 1 - Meechl mod - D142] (Eterna round: R96, puzzle: Same State 1) : 123 nM

###

System: MS2 coat protein
method-summary: apparent KD of MS2 coat protein; higher = weaker reporter binding
particulars: Eterna round: R107; input ligand: none
Quick rule for you: apparent KD of MS2 coat protein at 40 nM or higher means label 1, lower means label 0.

As a guide, the following entries are already answered.
>  <sequence-text>
AAAAGUAGGUCCAAUAAAACUACAUGUGAAGGAGCGCGCGAAAGCGCAGGUAGGUCGCACAUGAGGAUCACCCAUGUCCUACAAA [MAT - Exclusion Arginine A - Mod of Eli - D6]

>  <classification>
label 1

$$$$
>  <sequence-text>
UGUAUGUGAUUUGAUACCAGACCAGCUGGUGGUGCAUGAGGAUCACCCAUGCAGGUUUGGGUCCCUUGGCAGCAAAUCGCAUACU [SS Theo B #24 Ms17]

>  <classification>
label 1

$$$$
>  <sequence-text>
GGACCAGGGAGCGAUACCAGCUUGAGUGUGCUGGCCAGGCACAUGAGGAUCACCCAUGUAGGCCCUUGGCAGCGCUCCCUGGUCC [#1 Exclusion - Theophylline B Attempt #28 (HarryS)]

>  <classification>
label 0

$$$$
>  <sequence-text>
GGUUGGUGUGGAGACAUAUUGAUUACUGAAGGAGCGGGAAUAAACCCAGGUAGGUCGCAGAGAUCCACAUGAGGAUCACCCAUGU [!0.P]

>  <classification>
label 1

$$$$

Threshold query (apparent KD of MS2 coat protein >= 40 nM) on UACAUGAGGAUCACCCAUGUCUGAACUGAAGGAGCGCUAAAUAAGGCAGGUAGGUCGCGGAAUUUUGUGUGCAUAUGCAUAUGGG [9.L]
label 0

Threshold query (apparent KD of MS2 coat protein >= 40 nM) on GGCCGAUGGUGCGAUACCAGCUUGAGUGUACUGGCCAGGUACAUGAGGAUCACCCAUGUAAGCCCUUGGCAGCGCGUCAAAGGCC [#1 Exclusion - Theophylline B Attempt #20 (HarryS)]
label 0

###

System: K4 kissing-loop RNA reporter
method-summary: apparent KD of K4 kissing-loop reporter; higher = weaker reporter binding
particulars: Eterna round: R107; input ligand: theophylline 20 uM
property: apparent KD of K4 kissing-loop reporter (nM)
Report the value in nM with no unit label.

Solved cases below.
>  <sequence-text>
GGAUAGGACAAAGGAUAUGGGCUAGGCAAGAAUAACUUGUCUAGCAAAUCCAUGAGGAGUGAUGUUCCAGAAGGUUGUCCUAUCG [FmnBX 1 A11+U75]

>  <apparent KD of K4 kissing-loop reporter, nM>
127

$$$$
>  <sequence-text>
CACUUACGUAGUGAUGUUACGAUCUCUGAUACCAGACAACUCUAAGUCCCUUGGCAGCAGUCAUUUUGCUUAUAAUUUACUCAAA [JR_ExcTheophyA_Sub015]

>  <apparent KD of K4 kissing-loop reporter, nM>
646

$$$$

We next turn to a different sequence, shown below.
Measured apparent KD of K4 kissing-loop reporter of UGACUGGACUGAAGGAGCGAGCGAGACAAAGUCUCGAAAAUUCAGUGAUGUUGAAAUAUAACUCAGGUAGGUCGCAGUCUAGUCU [ArgBS 4 #SwitchBubble #StaticStem] : 313

###

System: MS2 coat protein
method-summary: apparent KD of MS2 coat protein, switch OFF state (with FMN for OFF switches, without FMN for ON switches); designed switch direction (-1 OFF switch, 1 ON switch): -1; higher = weaker reporter binding
particulars: FMN input: 0 or 200 uM; Eterna round: R93 (includes R88 designs)
apparent KD of MS2 coat protein values for the sequences below.
Write your answer as a measured quantity: the number, then the unit.

>  <sequence-text>
AGCAAACAUGAGGAUCACCCAUGUGAGGAUAUGAACGAAAAUAAAUAAAAAUAAAAGUUCAGAAGGUACGAGCA [66%, Wbt, 27]

>  <endpoint-value>
31.9 nM

$$$$
>  <sequence-text>
AAGAACUGAGGAUAUACAUGAAAGAAAGAAAAGAAAAGAAAACAUGAGGAUCACCCAUGUAGAAGGCAGAAGAA [EteRNA is fun!]

>  <endpoint-value>
14.4 nM

$$$$
>  <sequence-text>
AGCACGUCAGGAUAUACGAAAAAAAAGGGUAAACUAAAGGGACAUGAGGAUCACCCAUGUAGAAGGGACAAGCA [Diamond 92]

>  <endpoint-value>
245 nM

$$$$

Measured apparent KD of MS2 coat protein of AAUACACAUGAGGAUCACCCAUGUAAGGAUAUCGAAAAAAAACUAAACAAAAAACAAACGAGAAGGUACAAAAA [Exclusion 1 design 4] : 23.9 nM

###

apparent KD of K4 kissing-loop reporter values for the sequences below.
System: K4 kissing-loop RNA reporter;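 note: bound reporter read as fluorescence of individual clusters on recovered sequencing chips by microscopy, with normalized cluster intensities fitted with a binding model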
method-summary: apparent KD of K4 kissing-loop reporter; higher = weaker reporter binding
particulars: Eterna round: R107; input ligand: tryptophan 2.4 mM
Report the value in nM with no unit label.

>  <sequence-text>
CCUUCUCUUGAUAGUGAUGUUAUCAAGGGCAAGGAUAUCAUCUUAAUGAGAAGGUGUCCUUGAUAACAUGGAGGUCUGAAACAGA [Omei KL FMN A Exc C v5]

>  <unit>
nM

>  <endpoint-value>
335

$$$$
>  <sequence-text>
GUAUCGCUAGGAGGAUAUUCCGUUUUUCAUAGAAAUGGCUAUGCGGAGUGAUGUUCCGAUUUACCGGAAGAAGGCCUAGUGAUAC [FMN B 23]

>  <unit>
nM

>  <endpoint-value>
142

$$$$
>  <sequence-text>
UGGAGUUGACGAAGAGUCAACUCCUGAGAUACCAGUGACGAAAGUCACCCUUGGCAGCUCUCUGCCAGUGAUGUUGGUUUAUAAG [#07 K4 Theophylline A Same State]

>  <unit>
nM

>  <endpoint-value>
117

$$$$

Measured apparent KD of K4 kissing-loop reporter of UGUAUGUGUCAGCGAGUGAUGUUCGACGAUACCAGACUCGAUAGAGUCCCUUGGCAGCGUAAUGCAUGCCAACUGGCACAUACUA [#SwitchBubble 12 #K4Early] : 597

Measured apparent KD of K4 kissing-loop reporter of AAAUUCUUUUUUUUAUUUAACUUUUCAGAAGGAGCGUGGUAGUACACAGGUAGGUCGCUGAAUUUUGGGCUAGUGAUGUUAGUUA [whbob_SS_Arginine_A_sa113] : 193

Measured apparent KD of K4 kissing-loop reporter of UGAUAGCCAGUGAUGUUGGCAUAUACUGAAGGAGCGCGUGAAAACGCAGGUAGGUCGCAGUUCCUUGCCAAUUGAUCGAAAGAUC [#08 K4 Arginine A Exclusion] : 162

Measured apparent KD of K4 kissing-loop reporter of AUUCUAUUGUGAAGGAGCGCGACUAGUAGUGAUGUUACUAUAUGACUUUAGUCUUAAUUCUCGCAGGUAGGUCGCACAAUAUAUA [JR_Nu_SSArginiB_Sub028] : 755

Measured apparent KD of K4 kissing-loop reporter of ACGUAUAUCAGAGGAUAUCGUAUUAAUAUUUUAUCUAUAUAGUUUUGCAGUGAUGUUGCAAUUAUUCGAGAAGGCUGAUUUACGA [JR_SSFMNB_Sub024] : 69.2

Measured apparent KD of K4 kissing-loop reporter of CGGCGCGGCGCGGCCGCCACUGCGCCUGGGCGCUCGCCGAGUGAUGUUCGUCGGCGGUCGGGUGGCAGGACCGGGUGCCGGCCCG [BDazzled - #20 SS Tryptophan B] : 141

Measured apparent KD of K4 kissing-loop reporter of UCUAACGUUGAGGCGGCAGCGGGCCCAUCUAAGGAUAUCGGUUUACCGAGAAGGUAGUUGGACGAGAGUGAUGUUCUAUUGAGAG [theeternabot_sameState_KL_FMN_A_18] : 159

###

Tested on: MS2 coat protein
method-summary: apparent KD of MS2 coat protein; designed switch direction (-1 OFF switch, 1 ON switch): 1; higher = weaker reporter binding
particulars: Eterna round: R95; input ligand: microRNA oligo, concentration not stated
apparent KD of MS2 coat protein values for the sequences below.
Report the value in nM with no unit label.

Solved cases below.
>  <sequence-text>
GGUCCAGCCUGAGCUGGACAAAAGCAUGUACAUGAGGAUCACCCAUGUCAUGUACAAGCUUUUUGUUCGUCUUAAAA [JL mod - D87 - 13] (puzzle: Sensor for hsa-mir-208a)

>  <apparent KD of MS2 coat protein (nM)>
15.6

$$$$
>  <sequence-text>
UAGAAACAUGAGGAUCACCCAUGUGUCAAAGACAUAGGAUAUCGUGACCGGCGCCGGACACGAGAAGGGUGGUAAA [Quingees] (puzzle: Same State 1)

>  <apparent KD of MS2 coat protein (nM)>
209

$$$$
>  <sequence-text>
GGCAGGUGCAGGCUUGCUUGCACCUGGAAACAUGAGGAUCACCCAUGUUUGGGACAAGCUUUGCUCUUCGUUUUGUC [JL ViennaUCT Isusreraar mod 4] (puzzle: Sensor for hsa-mir-208a)

>  <apparent KD of MS2 coat protein (nM)>
40.4

$$$$
>  <sequence-text>
GGUACACAUGAGGAUCACCCAUGUCGUAUGACAUGAGGAUAUGUACAGACUUCGGUCUGUACAGAAGGCAUGUGUC [SS1 - 1011 Omei Mod 4] (puzzle: Same State 1)

>  <apparent KD of MS2 coat protein (nM)>
24.5

$$$$
>  <sequence-text>
GGUUUAGCCAGGCGCAAUUGCGCCUGAAAACAUGAGGAUCACCCAUGUUUGGGACAAGCUUUGCUCCUCGUCUUGCA [Edreisza] (puzzle: Sensor for hsa-mir-208a)

>  <apparent KD of MS2 coat protein (nM)>
41.9

$$$$

Measured apparent KD of MS2 coat protein of UACUAUCUAUCUCAGGAUAUCAUGUCAAAGACAUGAGGAUCACCCAUGUACCAGGAAACUGGUUAUGAGAAGGGAGAUAGAUAGA [Mat - Same State 2 - Mod - D39] (puzzle: Same State 2) : 45.1

Measured apparent KD of MS2 coat protein of ACAAGCUUUUUAGGAGAGAAAGGUGGGAUACAUGAGGAUCACCCAUGUAUUGUUGUUAAUAGUGGACCUCGUCUUAU [JR_SHM208A_Sub083] (puzzle: Sensor for hsa-mir-208a) : 15.7

Measured apparent KD of MS2 coat protein of AGUCCAGCCUGAGCUGGACAAAAGCAUGUACAUGAGGAUCACCCAUGUUCAUGUACAAGCUUUUUGCUCGUCUUAAA [salish99_208a_r3_026] (puzzle: Sensor for hsa-mir-208a) : 14.6

Measured apparent KD of MS2 coat protein of GUACGUGCAACGUAGGAUAUCCACGACACGACAUGAGGAUCACCCAUGUCAAGGCUUAAAAGUCGGGAGAAGGGCGAACCACGGA [Xereenge] (puzzle: Same State 2) : 15.9

Measured apparent KD of MS2 coat protein of AACUAUCUAUCUGAGGAUAUCAUGAAAUAAACAUGAGGAUCACCCAUGUGCAGGAAAACUGCAUAUGAGAAGGCAGAUAGAUUGA [salish99_ss2_r3_021] (puzzle: Same State 2) : 1250

Provenance of the data: the supplement of paper PMC9170038
